biological target: recombinant human IL-5 protein (human) (UniProt P05113); experiment: SPR, human IL-5 immobilized on CM5 chip, chimeric antibody as analyte, 1:1 global fit
READOUT_NAME: kon (M⁻¹ s⁻¹)
One number for each entry, in M⁻¹ s⁻¹.

Here's what some known entries look like.
* 151G3B11 mouse-human chimeric antibody (antibody, human IgG4, V domains shown) VH: EVHLQQSGAELVKPGASVKLSCTASGFNIKDYYMHWVKQRTEQGLEWIGRIDPEDGETKYAPKFQGQATITADTSSNTANLQLSSLTSEDTAVYYCARYGNFPDYWGPGTTLTVSS VL: QIVLTQSPALMSASPGEKVTMTCSASSSVSYMYWYQQKPRSSPKPWIYLTSKLASGVPARFSGSGSGTSYSLTISSMEAEDAATYYCQQWNSNPYTFGGGTKLEIK | 157000
* 102A2E11B6 mouse-human chimeric antibody (antibody, human IgG4, V domains shown) VH: QVQLRQSGPGLVQPSQSLSITCTVSGFSLTSYGVHWVRQSPGKGLEWLGVIWSGGSTDYNAVFMSRLSISKDSSKSQVFFKMNSLQTDDTAIYYCARNRYVLDYWGQGTSVTVSS VL: DIVMTQSPSSLSVSAGERVTMRCKSSQSLLTSGDQKNHLAWYQQKPGQPPKLLIYGASTRESGVPDRFTGSGSGTDFTLTITSVQAEDLAVYYCQNDHSFPLTFGAGTKLELK | 124000
* 147D7H2 mouse-human chimeric antibody (antibody, human IgG4, V domains shown) VH: EVQLQQSGAELVKPGASVKLSCTASGFNIKDYFIHWVKQRTEQGLEWIGRIDTEDGETKYAPKFQGKATITIDTSSNTAYLYFSSLTSEDTAMYYCARYGNYVAMDYWGQGTSVTVSS VL: QIVLTQSPALMSASPGEKVTMTCSASSSVSYMFWYQQKPSSSPKPWIYLTSKLASGVPARFSGSGSGTSYSLTISSVEAEDAATYYCQQWNSNPYTFGGGTKLEIK | 157000

// batch mode: one kon value per listed entry
1. 69F2F3 mouse-human chimeric antibody (antibody, human IgG4, V domains shown) VH: QVQLKQSGPGLVQPSQSLSITCTVSGFSLSNYGVHWVRQSPGKGLEWLGVIWSGGSTDYNAAFKSRLSITKDNSKSQVVFRMNSLQTDDTATYYCARNKDFLDYWGQGTKFTVSS VL: DIVMTQSPSSLTVTAGEKVTMTCKSSQGLLNSGNQKNYLTWYQQKPGQPPKLLIYWASTRESGVPDRFTGSGSGTDFTLTISSVQAEDLAVYYCQNDYHFPLTFGAGTKLELK
2. 154F10G8 mouse-human chimeric antibody (antibody, human IgG4, V domains shown) VH: QVQLQQPGAELVKPGASVKLSCKASGYTFTSYWITWVKQRPGQGLEWIGDIYPGSGSTFYNEKFKSEATLTVDTSSSTAYMQLSSLTSEDSAVFYCSTETTLGYWGQGTTLTVSS VL: DVLMTQTPLSLPVSLGDQASISCRSSQSIVHNNGNTYLEWYLQKPGQSPKLLIYKVSNRFSGVPDRFSGSGSGTDFTLKISRVEAEDLGVYYCFQGSHVPFTFGSGTKLEIK

*A*
[81900, 279000]
